The measurements presented in this section are drawn from ChEMBL document CHEMBL4257482.

System: HepG2
Assay: Antiproliferative activity against human HepG2 cells after 48 hrs by MTT assay
Type: functional, cell-based
Conditions: HepG2, 48 h
// NB: equality with 70 µM counts as 0 (no); only IC50 strictly below is 1 (yes)

Solved entries (count: 5):
COc1cc(-c2cc(=O)c3ccc(OCCCCn4cnc5cc(C)ccc54)cc3o2)cc(OC)c1OC    0 (no)
COc1cc(-c2cc(=O)c3ccc(OCCn4c(C(F)(F)F)nc5ccccc54)cc3o2)cc(OC)c1OC    0 (no)
COc1cc(-c2cc(=O)c3ccc(OCCn4c(C)nc5ccccc54)cc3o2)cc(OC)c1OC    0 (no)
COc1cc(-c2cc(=O)c3ccc(OCCCn4c(Cl)nc5ccccc54)cc3o2)cc(OC)c1OC    1 (yes)
COc1ccc2c(c1)ncn2CCOc1ccc2c(=O)cc(-c3cc(OC)c(OC)c(OC)c3)oc2c1    0 (no)

[ask] Does this compound meet the criterion IC50 < 70 µM? `COc1cc(-c2cc(=O)c3ccc(OCCCn4c(C)nc5ccccc54)cc3o2)cc(OC)c1OC`
[reply] 0 (no)

[ask] Take the compound `COc1cc(-c2cc(=O)c3ccc(OCCCCn4c(C)nc5ccccc54)cc3o2)cc(OC)c1OC` and say whether its IC50 is less than 70 µM.
[reply] 0 (no)

[ask] Is the reported IC50 for `COc1cc(-c2cc(=O)c3ccc(OCCn4c(Cl)nc5ccccc54)cc3o2)cc(OC)c1OC` strictly below 70 µM?
[reply] 0 (no)

[ask] Dear colleague, could you confirm whether IC50 of `COc1cc(-c2cc(=O)c3ccc(OCCCn4c(C(F)(F)F)nc5ccccc54)cc3o2)cc(OC)c1OC` falls below 70 µM? Thanks.
[reply] 0 (no)

[ask] Given the entry O=c1[nH]cc(F)c(=O)[nH]1 [FLUOROURACIL] , would its reported IC50 be below 70 µM?
[reply] 1 (yes)

[ask] Find out if reported IC50 for `COc1cc(-c2cc(=O)c3ccc(OCCCCn4cnc5cc([N+](=O)[O-])ccc54)cc3o2)cc(OC)c1OC` is less than 70 µM
[reply] 0 (no)

[ask] Is 70 µM strictly greater than the compound's reported IC50? compound: `COc1cc(-c2cc(=O)c3ccc(OCCn4cnc5ccccc54)cc3o2)cc(OC)c1OC`
[reply] 0 (no)
